assay: photoluminescence quantum yield (fraction); solvent given as SMILES; conditions: in Cc1ccccc1
Assign photoluminescence quantum yield to each entry below.

Worked cases, photoluminescence quantum yield given:
> print(dat)
                                   compound  reported
1  CCCCCCCCCCn1nnc(-c2ccc(C#Cc3ccc(C#Cc4ccc(-c5nnn(CCCCCCCCCC)n5)cc4)c4nc5c6ccccc6c6ccccc6c5nc34)cc2)n1      0.07
2  CC1=[N+]2C(=C(c3c4ccccc4cc4ccccc34)c3ccc(C)n3[B-]2(F)F)C=C1      0.29
3  c1cc2ccc3ccc4cc3c2cc1c1ccc2ccc3ccc(cc3c2c1)c1ccc2c(c1)c1cc4ccc1[C@]13OCCO[C@]21OCCO3      0.78
4        CN(C)c1ccc(-c2cc(=O)c3ccccc3o2)cc1      0.76

Kindly review the next compound as well.
What value of photoluminescence quantum yield has been recorded for this entry: Oc1ccccc1C1=NC2c3cccc4cccc(c34)C2N1c1ccccc1 (stereo not given) 0.009

----------
assay: photoluminescence quantum yield (fraction); solvent given as SMILES; details: in Cc1ccccc1
Test Readout: photoluminescence quantum yield
Numbers only.

Worked cases, photoluminescence quantum yield given:
Structure String	Reported
COc1nc(Cl)nc(Nc2ccc3c4c(cccc24)C(=O)c2ccccc2-3)n1	0.27
c1ccc(-c2nc(-c3ccc(N4c5ccccc5C(c5ccccc5)(c5ccccc5)c5ccccc54)cc3)cc(-c3ccc(N4c5ccccc5C(c5ccccc5)(c5ccccc5)c5ccccc54)cc3)n2)cc1	0.5
CCCCCCc1ccc(-n2c3c4cccc(OC)c4nnc3c3c2c2nnc4c(OC)cccc4c2n3-c2ccc(CCCCCC)cc2)cc1	0

Kindly review the next compound as well.
What value of photoluminescence quantum yield has been recorded for this entry: `COCCC1=Cc2nc1ccc1[nH]c(cc1CCOC)c1nc(c(OC)cc3[nH]c2cc3CCOC)C(CCOC)=C1` 0.18

----------
test: photoluminescence quantum yield (fraction); solvent given as SMILES; settings: in O
photoluminescence quantum yield of 0.01 or higher: YES. Under 0.01: NO.

Completed entries (count: 3):
> print(dat)
                           structure.string  class.label
1              CC1=N/C(=C\c2ccncc2)C(=O)N1C           NO
2  CC/[NH+]=c1\cc2oc3cc(NCCC(=O)O)c4ccccc4c3nc-2cc1C          YES
3        Nc1n[n+]([O-])c2cc(F)ccc2[n+]1[O-]           NO

# check: photoluminescence quantum yield of `CC1=CC(C)=[N+]2C1=C(c1ccccc1)c1c(C)cc(/C=C/c3ccc(O)cc3)n1[B-]2(F)F` is greater than or equal to 0.01 YES

# check: photoluminescence quantum yield of `C=CCNc1ccc2ccc3oc4cc(=O)ccc-4nc3c2c1` is greater than or equal to 0.01 NO

# check: photoluminescence quantum yield of `CN1C(=O)/C(=C/c2ccncc2)N=C1/C=C/c1ccccc1` is greater than or equal to 0.01 NO

----------
Assign photoluminescence quantum yield to each entry below.
assay: photoluminescence quantum yield (fraction); solvent given as SMILES; conditions: in Cc1ccccc1
One number for each entry.

Worked cases, photoluminescence quantum yield given:
Structure String	Test Readout	Reported
CC(C)c1cc(C(C)C)c(-c2nnc(-c3ccc(-n4c5ccccc5c5ccccc54)cc3)o2)c(C(C)C)c1	photoluminescence quantum yield	0.61
c1ccc(-c2nnc(-c3ccccc3)n2-c2ccc(N3c4ccccc4N(c4ccccc4)c4ccccc43)cc2)cc1	photoluminescence quantum yield	0.03

Please report photoluminescence quantum yield for every entry that follows.
1. CCCCN1/C(=C\c2c(-c3ccc(N(C)C)cc3)c(=O)c2=O)C=Cc2ccccc21
2. CC1(C)c2ccccc2N(c2ccc(C(=O)c3cc(C(=O)c4ccc(N5c6ccccc6C(C)(C)c6ccccc65)cc4)cc(C(=O)c4ccc(N5c6ccccc6C(C)(C)c6ccccc65)cc4)c3)cc2)c2ccccc21

1. 0.0163
2. 0.189
